# System: P. falciparum stage V gametocytes
# Parameters: BacTiter-Glo ATP luminescence viability of purified stage V gametocytes in 384-well plates, per cent inhibition versus DMSO
# studyConditions: 48 h, 5 µM; inhibitor
About 3,200 (25%) of roughly 13,000 compounds showed an effect of 50% or more. The list shows a part of the results.
Please mark Yes if the recorded % Inhibition is equal to or greater than 80%, and No if it falls below.

>  <compound>
CN1CCC(C(=O)N(Cc2ccc(-c3ccc(CNCCc4ccc(S(C)(=O)=O)cc4)cn3)cc2)Cc2cccc(F)c2)CC1 [TCMDC-141507]

>  <class>
Yes

$$$$
>  <compound>
COc1ccc(CCNCCCCCCNCCc2ccc(Cl)c(Cl)c2)cc1OC [TCMDC-131275]

>  <class>
Yes

$$$$
>  <compound>
CN1CCC(C(=O)N(Cc2ccc(-c3ccc(CNCCc4ccccc4)cn3)cc2)Cc2cccc(F)c2)CC1 [TCMDC-141553]

>  <class>
No

$$$$
>  <compound>
Cc1cc(CNCCCCCCCNCc2cccc([N+](=O)[O-])c2)ccc1O [TCMDC-140416]

>  <class>
No

$$$$
>  <compound>
COc1ccc(CNCCCCCNCc2ccc(Cl)c(Cl)c2)cc1Cl [TCMDC-140365]

>  <class>
No

$$$$
>  <compound>
Cc1cc(CNCCCCCNCc2cccc([N+](=O)[O-])c2)ccc1O [TCMDC-140410]

>  <class>
No

$$$$
>  <compound>
COCCCNC(=S)NN=C(C)c1ccccn1 [TCMDC-137907]

>  <class>
Yes

$$$$
>  <compound>
O=C(NCCCCN1CCC(c2ccc3c(c2OC(=O)c2ccc(NC(=O)c4ccc(Cl)cc4)cc2)CCCC3)CC1)c1ccc(NC(=O)c2ccc(Cl)cc2)cc1 [TCMDC-138644]

>  <class>
Yes

$$$$
>  <compound>
Cc1nc2nc(N)nc(N)c2c(C)c1Cc1ccc(C(F)(F)F)cc1 [TCMDC-137656]

>  <class>
No

$$$$
>  <compound>
O=C(NCCCCN1CCC(c2ccc3c(c2OCC2CC2)CCCC3)CC1)c1ccc(NC(=O)c2ccc(Cl)cc2)cc1 [TCMDC-138584]

>  <class>
No

$$$$
>  <compound>
COc1ccc(CNCCCCCCCNCc2ccc(Cl)c(Cl)c2)cc1Cl [TCMDC-140366]

>  <class>
No

$$$$
>  <compound>
CC(=O)Oc1c(C2CCN(CCCCNC(=O)c3ccc(NC(=O)c4ccc(Cl)cc4)cc3)CC2)ccc2c1CCCC2 [TCMDC-138649]

>  <class>
Yes

$$$$
>  <compound>
COc1cc(F)c2ncc(Cl)c(CCN3CCC(NCc4ccc5c(n4)NC(=O)CO5)CC3)c2c1 [TCMDC-135621]

>  <class>
No

$$$$
>  <compound>
COc1ccc(CCNCCCCCCNCCc2cccc([N+](=O)[O-])c2)cc1OC [TCMDC-131262]

>  <class>
Yes

$$$$
>  <compound>
COc1ccc(CCNCCCCCNCCc2ccc(Cl)cc2)cc1OC [TCMDC-131269]

>  <class>
Yes

$$$$
>  <compound>
CC(=O)NCCCCC1NC2(C(=O)N(Cc3ccc(C(C)(C)C)cc3)c3ccccc32)C2C(=O)N(C3CCCCC3)C(=O)C12 (stereo not shown) [TCMDC-139771]

>  <class>
No

$$$$

====

# Test system: P. falciparum stage V gametocytes
# Set-up: BacTiter-Glo ATP luminescence viability of purified stage V gametocytes in 384-well plates, per cent inhibition versus DMSO
# studyConditions: 48 h, 5 µM; inhibitor
Screen size: about 13,000 compounds; about 3,200 (25%) showed an effect of 50% or more. This is one part of the list.

>  <molecule>
O=C(Nc1cc(C(F)(F)F)ccc1-n1cncn1)C1(c2ccccc2)CC1 [TCMDC-125454]

>  <% Inhibition / %>
25.16

$$$$
>  <molecule>
Oc1ccc(CCNCCCCCCNCCc2ccc(Cl)c3ccccc23)cc1O [TCMDC-131271]

>  <% Inhibition / %>
123.4

$$$$
>  <molecule>
Oc1ccc(CCNCCCCCCNCCCc2ccc(Cl)cc2)cc1O [TCMDC-131264]

>  <% Inhibition / %>
107.9

$$$$
>  <molecule>
Cc1[nH]c2ccc(O)cc2c1C1CCN(CC2CCN(C(=O)/C=C/c3ccc(Cl)c(Cl)c3)CC2)CC1 [TCMDC-140219]

>  <% Inhibition / %>
39.96

$$$$
>  <molecule>
COc1ccc2nc(-c3cc(-c4ccc(NC(=O)CN5CCOCC5)cc4)cnc3N)[nH]c2c1 [TCMDC-135373]

>  <% Inhibition / %>
7.84

$$$$
>  <molecule>
Cc1cccc(-c2ccc(CNC3CCN(CC4Cn5c(=O)ccc6ccc(F)c4c65)CC3)cn2)c1 (centres unmarked) [TCMDC-134413]

>  <% Inhibition / %>
-59.7

$$$$
>  <molecule>
Cc1cccc2nc(-c3cccc(-c4ccc(CNCc5cccc(N)c5)cc4)c3)[nH]c12.O=C(O)C(F)(F)F [TCMDC-132930]

>  <% Inhibition / %>
-5.493

$$$$
>  <molecule>
Cc1cc(C)cc(OCC(O)CN(Cc2cc(Cl)cc(Cl)c2)C(=O)Nc2ccccc2Cl)c1 (centres unmarked) [TCMDC-141476]

>  <% Inhibition / %>
13.96

$$$$
>  <molecule>
Cn1cnc2c(SCc3ccccc3OCc3ccccc3)ncnc21 [TCMDC-136495]

>  <% Inhibition / %>
-28.48

$$$$
>  <molecule>
COC(=O)c1cccc(CNCc2ccc(-c3ccc(-c4nc5cccc(C)c5[nH]4)s3)cc2)c1.O=C(O)C(F)(F)F [TCMDC-132950]

>  <% Inhibition / %>
57.35

$$$$
>  <molecule>
COc1cc2nc(NCc3ccc(S(N)(=O)=O)cc3)nc(Nc3ccc(Oc4ccccc4)cc3)c2cc1OC [TCMDC-138256]

>  <% Inhibition / %>
65.95

$$$$
>  <molecule>
Oc1ccc(CCNCCCCNCCc2ccc(Cl)cc2)cc1O [TCMDC-131265]

>  <% Inhibition / %>
107

$$$$
>  <molecule>
COc1ccc2nc(Nc3nc4ccncc4[nH]3)sc2c1 [TCMDC-131950]

>  <% Inhibition / %>
20.19

$$$$
>  <molecule>
COc1ccc(-c2cc(-c3nc4ccc(C(=O)N5CCOCC5)cc4[nH]3)c(=O)n(C)c2)cc1OC [TCMDC-135055]

>  <% Inhibition / %>
52.78

$$$$
>  <molecule>
COc1cc2nc(C)nc(Nc3ccc(Cc4ccccc4)cc3)c2cc1OC [TCMDC-131941]

>  <% Inhibition / %>
1.462

$$$$
>  <molecule>
Cc1ccc(Nc2nc3cc(N(C)c4ccnc(Nc5cccc(CS(C)(=O)=O)c5)n4)ccc3o2)cc1 [TCMDC-141956]

>  <% Inhibition / %>
-42.21

$$$$
>  <molecule>
O=C(N[C@@H](CC1CCCCC1)C(=O)NCCN1CCCCC1)c1ccc(O)c(-c2ccc(Cl)c(Cl)c2)c1 [TCMDC-140862]

>  <% Inhibition / %>
10.77

$$$$
>  <molecule>
COc1cc2ncnc(Nc3ccc(OCc4ccccc4)c(OCc4ccccc4)c3)c2cc1OC [TCMDC-131922]

>  <% Inhibition / %>
-20.12

$$$$
>  <molecule>
N#Cc1cc(C(=O)c2cc(Cl)ccc2O)cn(-c2cccc(C(F)(F)F)c2)c1=O [TCMDC-124543]

>  <% Inhibition / %>
16.34

$$$$
>  <molecule>
COc1cc2nc(Nc3ccc(Oc4ccccc4)cc3)nc(Nc3ccc(Oc4ccccc4)cc3)c2cc1OC [TCMDC-138238]

>  <% Inhibition / %>
-17.62

$$$$
>  <molecule>
COc1cccc(N(CCCN2C(=O)c3cccc4cccc(c34)C2=O)C(=O)c2ccccc2C)c1 [TCMDC-124157]

>  <% Inhibition / %>
34.34

$$$$
>  <molecule>
COc1nc2c(N3CCN(CCNCc4ccc5c(n4)NC(=O)CO5)CC3)ccnc2cc1F [TCMDC-135208]

>  <% Inhibition / %>
-25.48

$$$$
>  <molecule>
Cc1ccccc1C1CCN(C2CCC(NC(=O)C3=Cc4ccccc4OC3)CC2)CC1 (centres unmarked) [TCMDC-133553]

>  <% Inhibition / %>
-49.51

$$$$
>  <molecule>
CC1(C)[C@H]2CC[C@@H](CNc3nc(NCCc4cnc[nH]4)nc(NCc4cc(F)ccc4F)n3)[C@@H]1C2 [TCMDC-139317]

>  <% Inhibition / %>
-2.684

$$$$
>  <molecule>
COc1cc2nccc(Nc3ccc(Oc4ccccc4)cc3)c2cc1OC.Cl [TCMDC-131917]

>  <% Inhibition / %>
-23.95

$$$$
>  <molecule>
COc1cc2nc(NCCCO)nc(Nc3ccc(Oc4ccccc4)cc3)c2cc1OC [TCMDC-138255]

>  <% Inhibition / %>
110.2

$$$$
>  <molecule>
O=C(Nc1ccc(CCNCCCc2ccccc2)cc1)Nc1ccc(Cl)c(Cl)c1 [TCMDC-140703]

>  <% Inhibition / %>
18.38

$$$$
>  <molecule>
CC(=O)C=C1CC(=O)N(C[C@@H](O)[C@H]2O[C@@H]3OC(C)(C)O[C@@H]3[C@H]2O)c2ccccc2N1 [TCMDC-138271]

>  <% Inhibition / %>
11.95

$$$$
>  <molecule>
COc1cc2nc(Nc3ccc(C)cc3)nc(Nc3ccc(C)cc3)c2cc1OC.Cl [TCMDC-138540]

>  <% Inhibition / %>
91.22

$$$$
>  <molecule>
CC(CC(=O)NCC1(c2ccc(F)cc2Cl)CCOCC1)C(=O)c1ccc(Cl)cc1 (centres unmarked) [TCMDC-134256]

>  <% Inhibition / %>
68.04

$$$$
>  <molecule>
Oc1ccc(CCNCCCCCCNCCc2ccc(Cl)cc2)c(Cl)c1O [TCMDC-131266]

>  <% Inhibition / %>
111.4

$$$$
>  <molecule>
COc1cc2nc(Nc3ccc4c(c3)OCCO4)nc(N)c2cc1OC.Cl [TCMDC-131882]

>  <% Inhibition / %>
-45.81

$$$$
